Below is a list of entries, each paired with its recorded Kd value.
Target: T1, human CD37 (human, UniProt P11049 1-278)
T1 construct: Tetraspanin antigen; Expressed on 300-19 cells transfected with pSRa-CD37 (entire CDS) or endogenous on WSU-DLCL-2, BJAB and Ramos lymphoma cells; also called CD37 antigen; human CD37 wildtype
T1 sequence: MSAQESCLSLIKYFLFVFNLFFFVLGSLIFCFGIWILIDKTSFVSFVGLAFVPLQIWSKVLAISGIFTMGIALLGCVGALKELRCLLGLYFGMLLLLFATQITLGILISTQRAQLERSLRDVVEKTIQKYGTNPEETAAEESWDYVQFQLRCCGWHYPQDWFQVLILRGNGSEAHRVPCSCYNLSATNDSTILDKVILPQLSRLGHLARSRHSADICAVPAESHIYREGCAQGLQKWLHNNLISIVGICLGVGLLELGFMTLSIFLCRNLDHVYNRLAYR
Assay: flow cytometry titration on BJAB cells; apparent Kd
Write down the numeric answer in nM and omit the unit.

huCD37-50 (antibody, human IgG1, kappa, V domains shown, Resurfaced (humanized) antibody) VH: QVQLQESGPGLLKPSQSLSLTCTVSGYSITSGFAWHWIRQHPGNKLEWMGYILYSGSTVYSPSLKSRISITRDTSKNHFFLQLNSVTAADTATYYCARGYYGYGAWFAYWGQGTLVTVSA VL: EIVLTQSPATMSASPGERVTMTCSATSSVTYMHWYQQKPGQSPKRWIYDTSNLPYGVPARFSGSGSGTSYSLTISSMEAEDAATYYCQQWSDNPPTFGQGTKLEIKR: 0.2
huCD37-38 (antibody, human IgG1, kappa, V domains shown, Humanized antibody) VH: QVQLQESGPGLVKPSQSLSLTCTVSGYSITSGFGWHWIRQFPGKGLEWMAYILYSGGTDYNPSLKSRISITRDTSKNQFFLRLSSVTAADTATYYCARGYYGYGAWFVYWGQGTLVTVSS VL: DIVLTQSPASMSASPGERVTMTCSASSSVTYMHWYQQKPGTSPKRWIYDTSKLASGVPARFSGSGSGTSYSLTISSMEAEDAATYYCQQWISNPPTFGGGTKLEIKR: 0.3

Field: next binder
Task item: GET /values?readout=Kd&item= muCD37-56 (antibody, mouse IgG1, kappa, V domains shown, Murine hybridoma antibody) VH: DVQLQESGPDLVKPSQSLSLTCTVTGYSITSGFAWHWIRQFPGNKLEWMGYIHYSGGTNYNPSLKSRVSITRDTSKNQFFLQLNSVTTEDTATYYCARGYYGFGAWFAYWGQGTLVPVSA VL: QIVLTQSPAFMSASPGDKVTMTCSASSSVTYMHWYQQKSGTSPKRWIYDTSKLASGVPARFSGGGSGTSYSLTISTMEAEDAATYYCQQWISDPPTFGGGTKLEIKR
Reply: 0.4

All values here come from patent US20110256153A1.
